Assay: Plasma clearance in C57/BL6 mouse at 10 mg/kg, po and 2 mg/kg, iv
Format: ADME, organism-based
measurement.kind: clearance (mL/min/kg)
Entry rule: numbers only, all in mL/min/kg.

Field request: clearance | item: `O=C(O)c1cncc(-c2ccc(N3CCC(Oc4cc(F)ccc4Br)CC3)nn2)c1`
81

---

Experiment: Plasma concentration in high sucrose/fat free diet fed C57/BL6 mouse at 100 mg/kg, po after 3 hrs
Assay type: ADME, organism-based
Set-up: dose 100 mg/kg, route oral
Form field: concentration at 3 h (one value per entry).
A complete answer gives the number followed by the unit.

Field request: concentration at 3 h | item: `O=C(O)c1cncc(-c2ccc(N3CCC(Oc4c(F)cc(F)cc4Br)CC3)nn2)c1`
750 nM

Next:
Field request: concentration at 3 h | item: `O=C(O)c1cncc(-c2ccc(N3CCC(Oc4cc(F)ccc4Br)CC3)nn2)c1`
4390 nM

---

Assay: Drug uptake in C57/BL6 mouse harderian glands at 30 mg/kg, po after 2 hrs
Type: ADME, organism-based, Harderian gland
Parameters: dose 30 mg/kg, route oral
Details: read-out: Drug uptake
measurement.kind: concentration at 2 h (nM)
Entry rule: numbers only, all in nM.

Field request: concentration at 2 h | item: `O=C(O)c1cncc(-c2ccc(N3CCC(Oc4cc(F)ccc4Br)CC3)nn2)c1`
389

---

Experiment: Drug uptake in C57/BL6 mouse kidney at 30 mg/kg, po after 24 hrs
Format: ADME, organism-based
Parameters: dose 30 mg/kg, route oral
Details: read-out: Drug uptake
measurement.kind: concentration at 24 h (nM)
Entry rule: numbers only, all in nM.

Field request: concentration at 24 h | item: `O=C(O)c1cncc(-c2ccc(N3CCC(Oc4cc(F)ccc4Br)CC3)nn2)c1`
29

---

Form field: IC50 (one value per entry).
Molecular target: Stearoyl-CoA desaturase (Homo sapiens, UniProt O00767)
Sequence (O00767 whole entry): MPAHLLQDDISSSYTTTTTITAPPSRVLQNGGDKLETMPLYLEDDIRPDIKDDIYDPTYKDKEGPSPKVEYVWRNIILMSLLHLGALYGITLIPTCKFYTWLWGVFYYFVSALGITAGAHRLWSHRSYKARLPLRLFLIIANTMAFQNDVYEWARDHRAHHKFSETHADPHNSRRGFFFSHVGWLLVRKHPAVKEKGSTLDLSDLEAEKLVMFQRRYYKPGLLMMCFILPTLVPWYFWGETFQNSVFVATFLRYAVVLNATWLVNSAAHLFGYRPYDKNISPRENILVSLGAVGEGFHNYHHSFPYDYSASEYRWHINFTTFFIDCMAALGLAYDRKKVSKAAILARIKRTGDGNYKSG
Assay: Inhibition of human SCD1 expressed in human HepG2 cells assessed as conversion of [14C]stearic acid to [14C]oleic acid
Format: cell-based

A selection of reference data follows.
Field request: IC50 | item: `O=C(O)c1cncc(-c2cnc(N3CCC(Oc4cc(F)ccc4Br)CC3)nn2)c1`
4.47 µM

Field request: IC50 | item: `O=C(O)c1cncc(-c2ccc(N3CCC(Oc4ccccc4Cl)CC3)nn2)c1`
> 10 µM

Field request: IC50 | item: `O=C(O)c1cncc(-c2ccc(N3CCC(Oc4cc(F)c(F)cc4Br)CC3)nn2)c1`
8.26 µM

Field request: IC50 | item: `O=C(O)c1cncc(-c2ccc(N3CCC(Oc4ccccc4C(F)(F)F)CC3)nn2)c1`
> 20 µM

Field request: IC50 | item: `O=C(O)c1cncc(-c2ccc(N3CCC(Oc4cc(F)ccc4Br)CC3)nc2)c1`
2.41 µM

New cases:
Field request: IC50 | item: `O=C(O)c1cncc(-c2ccc(N3CCC(Oc4ccccc4Br)CC3)nn2)c1`
18.3 µM

Field request: IC50 | item: `O=C(O)c1cncc(-c2ccc(N3CCC(Oc4cc(F)ccc4Br)CC3)nn2)c1`
6.03 µM

Field request: IC50 | item: `O=C(O)c1cncc(-c2cnc(N3CCC(Oc4cc(F)ccc4Br)CC3)cn2)c1`
6.72 µM

Field request: IC50 | item: `O=C(O)c1cccc(-c2ccc(N3CCC(Oc4ccccc4C(F)(F)F)CC3)nn2)c1`
1.11 µM

---

Test: Drug uptake in C57/BL6 mouse cerebellum at 30 mg/kg, po after 6 hrs
Assay type: ADME, organism-based
Set-up: dose 30 mg/kg, route oral
Settings: read-out: Drug uptake
measurement.kind: concentration at 6 h (nM)
Entry rule: numbers only, all in nM.

Field request: concentration at 6 h | item: `O=C(O)c1cncc(-c2ccc(N3CCC(Oc4cc(F)ccc4Br)CC3)nn2)c1`
17

---

Assay: Drug uptake in high fat diet fed C57/BL6 mouse eDIO model whole blood at 100 mg/kg, po after 3 hrs
Format: ADME, organism-based
Parameters: dose 100 mg/kg, route oral
Conditions: read-out: Drug uptake
Form field: concentration at 3 h (one value per entry).
Entry rule: numbers only, all in nM.

Field request: concentration at 3 h | item: `O=C(O)c1cncc(-c2ccc(N3CCC(Oc4c(F)cc(F)cc4Br)CC3)nn2)c1`
730

New cases:
Field request: concentration at 3 h | item: `O=C(O)c1cncc(-c2ccc(N3CCC(Oc4cc(F)ccc4Br)CC3)nn2)c1`
2240

---

Target: UniProt P07308
Sequence (P07308 whole entry): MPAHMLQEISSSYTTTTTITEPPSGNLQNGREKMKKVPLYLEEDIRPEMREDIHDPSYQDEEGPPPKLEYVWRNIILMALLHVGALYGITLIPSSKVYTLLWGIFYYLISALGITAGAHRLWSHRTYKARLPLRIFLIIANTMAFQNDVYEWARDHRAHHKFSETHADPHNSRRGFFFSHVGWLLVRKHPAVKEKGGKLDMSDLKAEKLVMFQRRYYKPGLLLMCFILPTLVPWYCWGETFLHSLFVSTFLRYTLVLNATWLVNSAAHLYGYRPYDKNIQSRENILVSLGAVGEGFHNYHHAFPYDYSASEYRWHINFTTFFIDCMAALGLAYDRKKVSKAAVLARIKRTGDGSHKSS
Assay: Inhibition of rat SCD1
Label 1.0 when IC50 < 100 nM; otherwise 0.0.

Some solved cases for reference:
Is it true that IC50 reported for `O=C(O)c1ccc(-c2ccc(N3CCC(Oc4cc(F)ccc4Br)CC3)nn2)nc1` is less than 100 nM?
1.0

Is it true that IC50 reported for `FC(F)(F)c1ccccc1OC1CCN(c2ccc(-c3cncc(-c4nnn[nH]4)c3)nn2)CC1` is less than 100 nM?
0.0

Is it true that IC50 reported for `O=C(O)c1cncc(-c2ccc(N3CCC(Oc4cc(F)ccc4Br)CC3)nn2)n1` is less than 100 nM?
0.0

New cases:
Is it true that IC50 reported for `O=C(O)c1cncc(-c2ccc(N3CCC(Oc4cc(F)ccc4Br)CC3)nc2)c1` is less than 100 nM?
1.0

Is it true that IC50 reported for `O=C(O)Cc1cncc(-c2ccc(N3CCC(Oc4cc(F)ccc4Br)CC3)nn2)c1` is less than 100 nM?
1.0

Is it true that IC50 reported for `O=C(O)c1cncc(-c2ccc(N3CCC(Oc4cc(F)c(F)cc4Br)CC3)nn2)c1` is less than 100 nM?
1.0

Is it true that IC50 reported for `O=C(O)c1cncc(-c2ccc(N3CCC(Oc4ccccc4Br)CC3)nn2)c1` is less than 100 nM?
1.0

Is it true that IC50 reported for `O=C(O)c1cncc(-c2cnc(N3CCC(Oc4cc(F)ccc4Br)CC3)nn2)c1` is less than 100 nM?
1.0

Is it true that IC50 reported for `O=C(O)c1cncc(-c2ccc(N3CCC(Oc4ccccc4Cl)CC3)nn2)c1` is less than 100 nM?
0.0

Is it true that IC50 reported for `O=C(O)Cc1ccc(N2CCC(Oc3ccccc3C(F)(F)F)CC2)nn1` is less than 100 nM?
0.0

Is it true that IC50 reported for `O=C(O)c1cncc(-c2ccc(N3CCC(Oc4cc(F)ccc4Br)CC3)nn2)c1` is less than 100 nM?
1.0

Is it true that IC50 reported for `O=C(O)c1cncc(-c2ccc(N3CCC(Oc4c(F)cc(F)cc4Br)CC3)nn2)c1` is less than 100 nM?
0.0

Is it true that IC50 reported for `O=C(O)c1cncc(-c2ccc(N3CCC(Oc4ccccc4I)CC3)nn2)c1` is less than 100 nM?
1.0

Is it true that IC50 reported for `O=C(O)c1cncc(-c2cnc(N3CCC(Oc4cc(F)ccc4Br)CC3)nc2)c1` is less than 100 nM?
1.0

Is it true that IC50 reported for `O=C(O)c1cncc(-c2ccc(N3CCC(Oc4ccccc4C(F)(F)F)CC3)nn2)c1` is less than 100 nM?
0.0

Is it true that IC50 reported for `O=C(O)c1cncc(-c2ccc(N3CCC(Oc4cc(F)ccc4Br)CC3)cn2)c1` is less than 100 nM?
0.0

Is it true that IC50 reported for `O=C(O)c1ccc(N2CCC(Oc3ccccc3C(F)(F)F)CC2)nn1` is less than 100 nM?
0.0

Is it true that IC50 reported for `O=C(O)c1cccc(-c2ccc(N3CCC(Oc4ccccc4C(F)(F)F)CC3)nn2)c1` is less than 100 nM?
0.0

Is it true that IC50 reported for `O=C(O)c1cncc(-c2ccc(N3CCC(Oc4ccccc4C(F)(F)F)CC3)cc2)c1` is less than 100 nM?
0.0

Is it true that IC50 reported for `O=C(O)c1cncc(-c2cnc(N3CCC(Oc4cc(F)ccc4Br)CC3)cn2)c1` is less than 100 nM?
1.0

Is it true that IC50 reported for `O=C(O)c1ccc(-c2ccc(N3CCC(Oc4ccccc4C(F)(F)F)CC3)nn2)cc1` is less than 100 nM?
0.0

---

Assay: Drug uptake in C57/BL6 mouse left epididymal fat at 30 mg/kg, po after 6 hrs
Type: ADME, organism-based, Epididymal fat pad
Parameters: dose 30 mg/kg, route oral
Details: male, read-out: Drug uptake
measurement.kind: concentration at 6 h
A complete answer gives the number followed by the unit.

Field request: concentration at 6 h | item: `O=C(O)c1cncc(-c2ccc(N3CCC(Oc4cc(F)ccc4Br)CC3)nn2)c1`
111 nM

---

Form field: concentration at 3 h (one value per entry).
Assay: Drug uptake in high sucrose/fat free diet fed C57/BL6 mouse liver at 100 mg/kg, po after 3 hrs
Assay type: ADME, organism-based
Set-up: dose 100 mg/kg, route oral
Settings: read-out: Drug uptake
Entry rule: numbers only, all in µM.

Field request: concentration at 3 h | item: `O=C(O)c1cncc(-c2ccc(N3CCC(Oc4cc(F)ccc4Br)CC3)nn2)c1`
53

Next:
Field request: concentration at 3 h | item: `O=C(O)c1cncc(-c2ccc(N3CCC(Oc4c(F)cc(F)cc4Br)CC3)nn2)c1`
30.2

Where do these numbers come from? They come from ChEMBL document CHEMBL1949499.
